Origin of measurements: PubChem BioAssay (NCI)

Tested on: RPMI-8226 leukemia
Assay: NCI-60 one-dose screen, 48 h (100 = growth as untreated, 0 = no growth, -100 = all killed)
Conditions: 10 µM unless noted
This is part of a sample that, as a whole, favours compounds with a hit. Of some 83,000 tested, about 20% had one in any assay. Active and inactive are the calls of the source. How the source made its calls: active means growth percent below 10; inactive means the rest.
quantity_kind: growth

# count of solved cases: 8
COc1ccc(NC(=O)Nc2ccc(OCCCCCC(=O)NO)cc2)cc1 | 97.8% (inactive)
CNC(=O)c1cc(Oc2cccc3nc(NC(=O)Nc4cc(C(F)(F)F)ccc4Cl)ccc23)ccn1 | 78.8% (inactive)
Cc1n[nH]c2ccc(Br)cc2c1=O | 98.1% (inactive)
NC(N)=NS(=O)(=O)c1ccc(NC2=C(I)C(=O)c3ncccc3C2=O)cc1 | 104% (inactive)
Cc1ccc(C)c2c(C)c(C(=O)Nc3cccc(-n4cccn4)c3)oc12 | 43.8% [50 µM] (inactive)
COc1ccc(/C=C/c2c(C(=O)/C=C/c3ccccc3)c(C)nc3ccccc23)cc1 | 0.598% (active)
O=c1cc(-c2ccccc2)[nH]c2ncc(-c3ccc(F)cc3)n12 | 74.5% (inactive)
CN(C)CCCC1(c2ccc(F)cc2)OCc2cc(-c3cc4ccccc4s3)ccc21 (stereo not given) | -3.17% (active)

Specify reported growth for the compound shown: O=C1Nc2ccccc2/C1=C/c1cccn1C(=O)c1ccc(Cl)s1 52.5% (inactive)

Specify reported growth for the compound shown: COc1ccc(/C(C)=C(\c2ccc(Cl)cc2)c2ccc(OCCN3CCCCC3)cc2)cc1 7.75% (active)
